Reported pIC50 is given for each of the following molecules.
# Test system: A-375 cells expressing mutant MEK1P124L
# experiment summary: Microscopy imaging assay (viable nuclei count), 72 h
# Format: cell-based
# measurement conditions: Homo sapiens, A-375 MEK1P124L, single agent
pIC50: −log10 of the molar value.
observable: pIC50

molecule=Cn1cnc2c(F)c(Nc3ccc(Br)cc3F)c(C(=O)NOCCO)cc21 censoring_sign=< experimental_result=5.57
molecule=COC(=O)N[C@@H](C)CNc1nccc(-c2cn(C(C)C)nc2-c2cc(Cl)cc(NS(C)(=O)=O)c2F)n1 censoring_sign== experimental_result=6.52

----------
# Test system: CL-34
# experiment summary: CellTiter-Glo proliferation assay 72 hrs, with or without FGF2
# Type: cell-based
# measurement conditions: CL-34, without FGF2; read-out: LGX818 IC50
pIC50: −log10 of the molar value.
observable: pIC50

compound="COC(=O)N[C@@H](C)CNc1nccc(-c2cn(C(C)C)nc2-c2cc(Cl)cc(NS(C)(=O)=O)c2F)n1 [Compound of Formula (I)]" experimental_result=7.42
